Test system: HCT-15 colon
Experiment: NCI-60 one-dose screen, 48 h (100 = growth as untreated, 0 = no growth, -100 = all killed)
Details: 10 µM unless noted
Procedure: Growth inhibition of the HCT-15 human tumor cell line is measured as a screen for anti-cancer activity. Cells are grown in 96 well plates and exposed to the test compound for 48 hours. Compounds are tested at a single concentration, which is 10^-5 M for most compounds. The reported endpoint is percent growth (GI% or GIPRCNT), where numbers from 0 - 100% represent growth inhibition, and numbers from -100% - 0 represent cell death. For example, a value of 40 represents 60% growth inhibition. […]
The panel holds about 83,000 compounds, 20% with a hit somewhere; the sample as a whole holds those more often.
Field: label. Allowed values: yes (1) (growth < 50%) or no (0) (growth >= 50%).

Study these solved cases before continuing.
cpd_smiles=COc1ccc(-c2nc3cc(Cl)c(Cl)cc3n2CC(=O)N=Nc2c(O)[nH]c3ccc(Br)cc23)cc1 discrete_label="yes (1)"
cpd_smiles=Cc1ccc(/C=C/CC(=O)Nc2ccc(C(=O)Nc3ccc(F)cc3N)cc2)cn1 discrete_label="no (0)"
cpd_smiles=O=S(=O)(Nc1cc(Cl)cc(Cl)c1)c1ccc(-c2cnc(C3CC3)o2)cc1 discrete_label="yes (1)"
cpd_smiles=C=CCn1c(SCC(=O)Nc2ccc(OC)cc2)nnc1-c1ccc(Cl)cc1 discrete_label="no (0)"
cpd_smiles=C=C(C)[C@@H]1CC[C@]2(C(=O)NCCCN(CCC#N)CCC#N)CC[C@]3(C)[C@H](CC[C@@H]4[C@@]5(C)CCC(=O)C(C)(C)[C@@H]5CC[C@]43C)[C@@H]12 discrete_label="no (0)"

Next, consider the following molecule.
Query block: Regarding COc1ccc(/C=N/Nc2nc(Nc3ccccc3)nc(Nc3ccc(S(N)(=O)=O)cc3)n2)cc1 , kindly confirm whether its growth is beneath 50%.
Result block: no (0)

###

Listed here are compounds together with their documented growth.
system: NCI/ADR-RES ovarian; assay: NCI-60 one-dose screen, 48 h (100 = growth as untreated, 0 = no growth, -100 = all killed); settings: 10 µM unless noted
This is part of a sample that, as a whole, favours compounds with a hit. Of some 83,000 tested, about 20% had one in any assay.
The answer is to be given in %; state only the numeric part.

compound="CC1OC(O[C@@H]2[C@H](O)C(CO)OC(O[C@H]3COC(O[C@H]4CC[C@]5(C)[C@H]6CC[C@]78OC[C@@]9(CCC(C)(C)C[C@H]97)[C@H](O)C[C@@]8(C)[C@]6(C)CC[C@H]5C4(C)C)[C@@H](OC4OC(CO)[C@@H](O)[C@@H](O)[C@@H]4O)[C@@H]3O)[C@H]2OC2OC[C@@H](O)[C@@H](O)[C@@H]2O)[C@@H](O)[C@@H](O)[C@H]1O (some centres undefined)" endpoint_name=growth value_reported=-44.2
compound=COc1cc(-c2noc(C[C@@H](NC(=O)OCc3ccccc3)C(C)C)n2)cc(OC)c1OC endpoint_name=growth value_reported=104
compound=COc1ccc(S(=O)(=O)n2cc(C=O)c3ccccc32)c(OC)c1 endpoint_name=growth value_reported=51

Query block: Param item = O=C(Nc1cccc(-c2nc(-c3ccc(NC(=O)c4cccs4)cc3Cl)no2)c1)Nc1ccc(NC(=O)C2CC2)c(C(F)(F)F)c1 ; retrieve measured growth.
Result block: 45.5

Query block: Param item = Cc1[nH]nc2ccc(-c3nc4cnc(N5CCN(C)CC5)cn4c3Nc3ccc(F)cc3Br)cc12 ; retrieve measured growth.
Result block: 49.4

Query block: Param item = CCCCCCNC(=O)Oc1ccc(/C(=C(/C)c2ccc(Cl)cc2)c2ccc(OCCN3CCCC3)cc2)cc1 ; retrieve measured growth.
Result block: 50.4

Query block: Param item = C=C1C(=O)O[C@@H]2C[C@@H](C)[C@H](OC)CC(=O)[C@](C)(OC(C)=O)C[C@H](OC(=O)/C(C)=C\C)[C@@H]12 ; retrieve measured growth.
Result block: 100

Query block: Param item = Cc1ccccc1/C=C/c1nn2c(-c3ccoc3C)nnc2s1 ; retrieve measured growth.
Result block: 93.7

Query block: Param item = C=CCn1c(SCC(=O)Nc2cccc(C(=O)/C=C/c3ccccc3)c2)nc2ccccc2c1=O ; retrieve measured growth.
Result block: 87.1

Query block: Param item = CS(=O)(=O)c1nccc(-c2c(-c3ccc(F)c(OCCc4ccccc4)c3)nc3sccn23)n1 ; retrieve measured growth.
Result block: 95.9

Query block: Param item = CN1CCN(c2ccc(C(=O)/C=C/c3ccc(Cl)c(C(F)(F)F)c3)cc2)CC1 ; retrieve measured growth.
Result block: 64.4

Query block: Param item = C=C(C)[C@@H]1CC[C@]2(C(=O)NCCCN(CCC#N)CCC#N)CC[C@]3(C)[C@H](CC[C@@H]4[C@@]5(C)CCC(=O)C(C)(C)[C@@H]5CC[C@]43C)[C@@H]12 ; retrieve measured growth.
Result block: 102

Query block: Param item = COc1ccc(-c2ccc3c4c(cccc24)C(=O)N(N2C(=O)c4cccc5cccc(c45)C2=O)C3=O)cc1 ; retrieve measured growth.
Result block: 98.2

Query block: Param item = COC(=O)c1nc(-c2ccc(C)cc2)oc1S(=O)(=O)N1CCN(c2oc(-c3ccccc3)nc2C#N)CC1 ; retrieve measured growth.
Result block: 103

###

system: HT29 colon; test: NCI-60 one-dose screen, 48 h; settings: 10 µM unless noted
Compounds without any hit were thinned out: in the full panel of roughly 83,000, 20% have a hit. Activity calls are given as the source filed them. Rule for the calls: active = growth percent below 10; inactive = the rest.
Select the correct class. Options are active, inactive and nothing else.

Study these solved cases before continuing.
compound=C[C@H]1[C@H](C)CC[C@]2(COC(=O)c3cccnc3)CC[C@]3(C)C(=CC[C@@H]4[C@@]5(C)CCCNC(C)(C)[C@@H]5CC[C@]43C)[C@H]12 measured_target="HT29 colon" discrete_label=inactive
compound=O=C1Nc2cc(OC(F)(F)F)ccc2Oc2ccc(-c3ccnc(N4CCNCC4)c3)cc21 measured_target="HT29 colon" discrete_label=active
compound=O=C(Nc1ccccc1)Nc1nc2ccc([N+](=O)[O-])cc2s1 measured_target="HT29 colon" discrete_label=active
compound=COc1ccc(C(=O)n2cc(C=O)c3ccccc32)cc1 measured_target="HT29 colon" discrete_label=inactive
compound=COc1cc(-c2nc(SCc3ccc(C)cc3)[nH]c(=O)c2C#N)ccc1OCc1ccccc1 measured_target="HT29 colon" discrete_label=inactive
compound=CC1=CC(=O)CC(C)(C)[C@@]1(O)/C=C/C(C)=C\C(=O)O measured_target="HT29 colon" discrete_label=active

Query block: Please let me know the test result on file for CCC(CC)N1C(=O)/C(=c2\sc3n(c2=O)C2C(NN=3)N(CC)C(=O)N2CC)c2ccccc21 (configuration not stated) .
Result block: active

Query block: Please let me know the test result on file for CCOC(=O)c1c(NC(=O)c2ccc(C(C)(C)C)cc2)sc2cc(OCCN3CCCCC3)ccc12 .
Result block: inactive

Query block: Please let me know the test result on file for COc1ccc(OC)c([C@H]2c3[nH]c4ccccc4c3C[C@H]3C(=O)N(CCCCCCC(=O)NO)CC(=O)N23)c1 .
Result block: inactive

Query block: Please let me know the test result on file for COc1c([C@@H](CC(C)C)OC(C)=O)ccc2c1C(=O)OCc1cc(C)cc(O)c1O2 .
Result block: inactive

Query block: Please let me know the test result on file for CC1OC(O[C@@H]2[C@H](O)C(CO)OC(O[C@H]3COC(O[C@H]4CC[C@]5(C)[C@H]6CC[C@]78OC[C@@]9(CC[C@](C)(C=O)C[C@H]97)C(=O)C[C@@]8(C)[C@]6(C)CC[C@H]5C4(C)C)[C@@H](O)[C@@H]3O)[C@H]2OC2OC[C@@H](O)[C@@H](O)[C@@H]2O)[C@@H](O)[C@@H](O)[C@H]1O (some centres not stated) .
Result block: inactive

Query block: Please let me know the test result on file for Cn1c2ccccc2c2c3c(c4c5ccc(Br)cc5oc4c21)C(=O)N(O)C3=O .
Result block: inactive

Query block: Please let me know the test result on file for C#C[C@]1(O)CC[C@H]2[C@@H]3CC=C4c5sc(Nc6cc(Cl)ccn6)nc5CC[C@]4(C)[C@H]3CC[C@@]21C .
Result block: inactive

Query block: Please let me know the test result on file for CCOC(=O)Nc1ccc(-c2nc(-c3cccc(O)c3)c(-c3ccnc(Br)c3)[nH]2)cc1 .
Result block: inactive

Query block: Please let me know the test result on file for CNC(=O)c1cc(N2CCc3cc(NC(=O)Nc4ccc(Cl)c(Cl)c4)ccc32)ccn1 .
Result block: inactive

Query block: Please let me know the test result on file for NS(=O)(=O)c1ccc(Nc2nc(N/N=C/c3ccc(C(F)(F)F)cc3)nc(Nc3ccccc3)n2)cc1 .
Result block: inactive

###

test system: PC-3 prostate; assay: NCI-60 one-dose screen, 48 h (100 = growth as untreated, 0 = no growth, -100 = all killed); settings: 10 µM unless noted
Compounds without any hit were thinned out: in the full panel of roughly 83,000, 20% have a hit.
Endpoint name: growth (%)
The answer is to be given in %; state only the numeric part.

cpd_smiles=CC(C)C(=O)Nc1ccc(-c2nc(-c3cccc(O)c3)c(-c3ccnc(Br)c3)[nH]2)cc1 measured_target="PC-3 prostate" unit_of_measurement=% value_reported=29.7
cpd_smiles=C=CCn1c(SCC(=O)Nc2cccc(C(=O)/C=C/c3ccccc3)c2)nc2ccccc2c1=O measured_target="PC-3 prostate" unit_of_measurement=% value_reported=77.4
cpd_smiles=N#Cc1ccc(S(=O)(=O)Nc2ccc(-c3cnc(N)[nH]3)cc2)cc1 measured_target="PC-3 prostate" unit_of_measurement=% value_reported=99

Then there is this compound:
Query block: Param item = CNC(=O)c1c(NC(=O)c2ccc(F)cc2F)sc2c1CCC(=O)C2 ; retrieve measured growth.
Result block: 11.7

From: PubChem BioAssay (NCI)
